# TARGET OR SYSTEM: Receptor-interacting serine/threonine-protein kinase 2 (Homo sapiens, UniProt O43353)
# Sequence (O43353 whole entry): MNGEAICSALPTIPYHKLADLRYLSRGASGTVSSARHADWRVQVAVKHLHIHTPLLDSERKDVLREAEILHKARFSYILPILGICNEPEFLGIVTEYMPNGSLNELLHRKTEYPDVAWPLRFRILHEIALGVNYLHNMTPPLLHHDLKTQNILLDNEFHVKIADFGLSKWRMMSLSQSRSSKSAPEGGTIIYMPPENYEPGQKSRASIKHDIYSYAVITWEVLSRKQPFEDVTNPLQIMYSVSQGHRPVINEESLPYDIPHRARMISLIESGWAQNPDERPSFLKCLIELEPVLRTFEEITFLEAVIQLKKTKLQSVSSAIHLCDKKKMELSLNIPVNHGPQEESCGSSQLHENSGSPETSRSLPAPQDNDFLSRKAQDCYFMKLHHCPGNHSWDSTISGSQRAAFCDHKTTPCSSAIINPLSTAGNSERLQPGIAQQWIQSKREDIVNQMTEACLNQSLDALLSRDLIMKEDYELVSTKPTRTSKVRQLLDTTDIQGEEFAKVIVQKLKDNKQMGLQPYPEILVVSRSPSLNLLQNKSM
# RUN DESCRIPTION: Inhibition of recombinant human RIPK2 incubated for 2 hr by ADP-Glo assay
Kindly apply the following: 1.0 if IC50 is less than 50 nM, 0.0 in every other case.

Solved entries:
1. COc1cc(NS(=O)(=O)C(C)C)cc(-c2cc(-c3ccc(N4CCNCC4)cc3)cnc2N)c1 ... 1.0
2. CC(C)Oc1cc(NS(=O)(=O)C(C)C)cc(-c2cc(-c3ccc(N4CCNCC4)cc3)cnc2N)c1 ... 1.0
3. CCCS(=O)(=O)Nc1cc(-c2cc(-c3ccc(N4CCNCC4)cc3)cnc2N)ccc1OC ... 1.0
4. CCCS(=O)(=O)Nc1cc(-c2cc(-c3ccc(N4CCNCC4)cc3)cnc2N)cc2c1OCCO2 ... 0.0
5. COc1cc(-c2cc(-c3ccc(N4CCNCC4)cc3)cnc2C)cc(OC)c1OC ... 0.0
6. CCCS(=O)(=O)Nc1cc(-c2cc(-c3cccc(N4CCNCC4)c3)cnc2N)cc(F)c1OC ... 1.0

Query block: Please determine if `CCCS(=O)(=O)N1CCc2ccc(-c3cc(-c4ccc(N5CCNCC5)cc4)cnc3N)cc21` is below 50 nM in terms of IC50.
Result block: 0.0

Query block: Please determine if `CCCS(=O)(=O)Nc1cc(-c2cncc(-c3ccc(N4CCNCC4)cc3)c2)cc(F)c1OC` is below 50 nM in terms of IC50.
Result block: 1.0

Query block: Please determine if `COc1cc(NS(=O)(=O)C(C)C)cc(-c2cc(-c3ccc(N4CCNCC4)cc3)cnc2C)c1` is below 50 nM in terms of IC50.
Result block: 0.0

Query block: Please determine if `CCCS(=O)(=O)Nc1cc(-c2cc(-c3ccc(N4CCNCC4)cc3)cnc2N)cc(C)c1OC` is below 50 nM in terms of IC50.
Result block: 1.0

Query block: Please determine if `CCS(=O)(=O)Nc1cc(OC)cc(-c2cc(-c3ccc(N4CCNCC4)cc3)cnc2C)c1` is below 50 nM in terms of IC50.
Result block: 0.0

Query block: Please determine if `CCCS(=O)(=O)Nc1cc(-c2cc(-c3ccc(N4CCNCC4)cc3)cnc2N)cc(Cl)c1OC` is below 50 nM in terms of IC50.
Result block: 1.0
